# experiment: Distribution of C1 in brain regions, plasma and CSF of rats 30 min after oral dosing
# Format: in vivo
# assay.context: Sprague-Dawley, rat, striatum; SD rats, 30 min after oral 10 mg/kg; read-out: concentration of C1 in the striatum
parameter: concentration at 30 min
The number alone won't do; follow it with the unit.

stdin: Return concentration at 30 min (reported value) for this molecule: COc1ccccc1/C=C/C(=O)/C=C/c1ccccc1OC [Compound C1]
stdout: 4.69 ng/g

* * *

# experiment: Distribution of C1 in brain regions, plasma and CSF of rats 30 min after oral dosing
# Format: in vivo
# assay.context: Sprague-Dawley, rat, hippocampus; SD rats, 30 min after oral 10 mg/kg; read-out: concentration of C1 in the hippocampus
parameter: concentration at 30 min (ng/g)
Answers are plain numbers, in ng/g.

stdin: Return concentration at 30 min (reported value) for this compound: COc1ccccc1/C=C/C(=O)/C=C/c1ccccc1OC [Compound C1]
stdout: 68.4

* * *

# experiment: Distribution of C1 in brain regions, plasma and CSF of rats 30 min after oral dosing
# Type: in vivo
# assay.context: Sprague-Dawley, rat, plasma; SD rats, 30 min after oral 10 mg/kg; read-out: level of C1 in plasma
parameter: concentration at 30 min (ng/mL)
Answers are plain numbers, in ng/mL.

stdin: Return concentration at 30 min (reported value) for this molecule: COc1ccccc1/C=C/C(=O)/C=C/c1ccccc1OC
stdout: 352

* * *

# experiment: Distribution of C1 in brain regions, plasma and CSF of rats 30 min after oral dosing
# Assay type: in vivo
# assay.context: Sprague-Dawley, rat, frontal cortex; SD rats, 30 min after oral 10 mg/kg; read-out: concentration of C1 in the frontal cortex
parameter: concentration at 30 min

stdin: Return concentration at 30 min (reported value) for this molecule: COc1ccccc1/C=C/C(=O)/C=C/c1ccccc1OC
stdout: 58 ng/g
